- ASSAYED SYSTEM: T1, GDF15 mutant S278R (back-of-hand), albumin fusion (human, UniProt Q99988 195-308)
- T1 construct: not shown: albumin fusion partner
- T1 chain: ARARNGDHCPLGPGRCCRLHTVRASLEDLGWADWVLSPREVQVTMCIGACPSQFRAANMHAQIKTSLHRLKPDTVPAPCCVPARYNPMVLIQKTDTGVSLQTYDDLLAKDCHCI
- ASSAY EXPLANATION: direct ELISA on coated albumin-fusion GDF15 variant
QUANTITY KIND: binding result

ABGDF15-G (antibody, human IgG1, kappa, V domains shown, captured through anti-human Fc in the Biacore assay) VH: QVQLVQSGAEVKKPGSSVKVSCKASGGTFSSHYINWVRQAPGQGLEWMGGIIPAFGGANYAQKFQGRVTITADESTSTAYMELSSLRSEDTAVYYCARFGSVYVSRYSSYYHMDVWGQGTLVTVSS VL: DIQMTQSPSSLSASVGDRVTITCRASQTIYRSLAWYQQKPGKAPKLLIYGASILQSGVPSRFSGSGSGTDFTLTISSLQPEDFATYYCLQRYTSPFTFGQGTKVEIKR
binds
ABGDF15-C (antibody, human IgG1, lambda, V domains shown, captured through anti-human Fc in the Biacore assay) VH: QVQLVQSGAEVKKPGSSVKVSCKASGGTFRSYAVSWVRQAPGQGLEWMGGIIPIFGTANYAQKFQGRVTITADESTSTAYMELSSLRSEDTAVYYCARGPIIMGYQFGLFDHWGQGTLVTVSS VL: SYELTQPPSVSVSPGQTASITCSGDNIGSHIVSWYQQKPGQSPVLVIYDKSNRPSGIPERFSGSNSGNTATLTISGTQAMDEADYYCQTWDSIGSVVFGGGTKLTVLG
binds
